assay.comment: Solubility test in PBS buffer
Type: physicochemical
condition.label: PBS pH 7.4, 0.2 mg/mL, 1 minute in 37° C. water bath
property: Appearance at 37° C.

Example cases with answers are listed next.
| compound | Appearance at 37° C. |
| --- | --- |
| CC(=O)N[C@H]1[C@@H](OCc2ccccc2)O[C@H](CO)[C@@H](O)[C@@H]1O[C@H](C)C(=O)N[C@@H](C)C(=O)N[C@H](CCC(=O)NCc1cn(CC(=O)O[C@H]2CC[C@@]3(C)C(=CC[C@H]4[C@@H]5CC[C@H]([C@H](C)CCCC(C)C)[C@@]5(C)CC[C@@H]43)C2)nn1)C(N)=O [Example 8, MDP(Bn)-Chol[Click]] | suspension |
| CC(=O)N[C@H]1C(O)O[C@H](CO)[C@@H](O)[C@@H]1O[C@H](C)C(=O)N[C@@H](C)C(=O)N[C@H](CCC(=O)NCc1cn(CC(=O)O[C@H]2CC[C@@]3(C)C(=CC[C@H]4[C@@H]5CC[C@H]([C@H](C)CCCC(C)C)[C@@]5(C)CC[C@@H]43)C2)nn1)C(N)=O (some centres unmarked) [Example 3, MDP-Chol [Click]] | hazy |
| CCCCCCCCCCCCCCCCCC(=O)OC[C@H]1OC(O)[C@H](NC(C)=O)[C@@H](O[C@H](C)C(=O)N[C@@H](C)C(=O)N[C@H](CCC(=O)O)C(N)=O)[C@@H]1O (some centres unmarked) [MDP-C18[mur], reference compound] | clear |
| CCCCCCCCCCCCCCCC(=O)OC[C@H](COP(=O)(O)OCCNC(=O)[C@H](C)NC(=O)CC[C@@H](NC(=O)[C@H](C)NC(=O)[C@@H](C)O[C@H]1[C@H](O)[C@@H](CO)OC(O)[C@@H]1NC(C)=O)C(N)=O)OC(=O)CCCCCCCCCCCCCCC (some centres unmarked) [Mifamurtide, reference compound] | clear |
| CCCCCCCCCCCCCCCCCCNC(=O)CC[C@@H](NC(=O)[C@H](C)NC(=O)[C@@H](C)O[C@H]1[C@H](O)[C@@H](CO)OC(O)[C@@H]1NC(C)=O)C(N)=O (some centres unmarked) | suspension |

Just so you know, measured Appearance at 37° C. for CCCCCCCCCCCCCCCCCC(=O)OC[C@H](COC(=O)NCCCC[C@H](NC(=O)CC[C@@H](NC(=O)[C@H](C)NC(=O)[C@@H](C)O[C@H]1[C@H](O)[C@@H](CO)OC(OCc2ccccc2)[C@@H]1NC(C)=O)C(N)=O)C(N)=O)OC(=O)CCCCCCCCCCCCCCCCC (some centres unmarked) came out at suspension

Appearance at 37° C. for CCCCCCCCCCCCCCCCCC(=O)OC[C@H](COP(=O)(O)OCCNC(=O)Cn1cc(CNC(=O)CC[C@@H](NC(=O)[C@H](C)NC(=O)[C@@H](C)O[C@H]2[C@H](O)[C@@H](CO)OC(OCc3ccccc3)[C@@H]2NC(C)=O)C(N)=O)nn1)OC(=O)CCCCCCCCCCCCCCCCC (some centres unmarked) [Example 7, MDP(Bn)-DSPE [Click]] is hazy

The compound CCCCCCCCCCCCCCCCCC(=O)OC[C@H](COP(=O)(O)OCCNC(=O)Cn1cc(CNC(=O)CC[C@@H](NC(=O)[C@H](C)NC(=O)[C@@H](C)O[C@H]2[C@H](O)[C@@H](CO)OC(O)[C@@H]2NC(C)=O)C(N)=O)nn1)OC(=O)CCCCCCCCCCCCCCCCC (some centres unmarked) [Example 2, MDP-DSPE [Click]] showed Appearance at 37° C. equal to hazy

---

Give HPLC-ELSD t for every item shown.
assay.comment: HPLC retention times to compare lipophilicities
Format: physicochemical
condition.label: Kinetex EVO C18 column, same gradient A to B; higher retention time = more lipophilic
Return type: number; implicit unit min.

// CCCCCCCCCCCCCCCCCC(=O)OC[C@H](COP(=O)(O)OCCNC(=O)Cn1cc(CNC(=O)CC[C@@H](NC(=O)[C@H](C)NC(=O)[C@@H](C)O[C@H]2[C@H](O)[C@@H](CO)OC(OCc3ccccc3)[C@@H]2NC(C)=O)C(N)=O)nn1)OC(=O)CCCCCCCCCCCCCCCCC (stereo partly drawn) [Example 7, MDP(Bn)-DSPE [Click]] : HPLC-ELSD t value = 5.16

Looking up CCCCCCCCCCCCCCCC(=O)OC[C@H](COP(=O)(O)OCCNC(=O)[C@H](C)NC(=O)CC[C@@H](NC(=O)[C@H](C)NC(=O)[C@@H](C)O[C@H]1[C@H](O)[C@@H](CO)OC(O)[C@@H]1NC(C)=O)C(N)=O)OC(=O)CCCCCCCCCCCCCCC (stereo partly drawn) [Mifamurtide, reference compound] , I see its HPLC-ELSD t listed as 3.04

Reported HPLC-ELSD t for CCCCCCCCCCCCCCCCCC(=O)OC[C@H](COC(=O)NCCCC[C@H](NC(=O)CC[C@@H](NC(=O)[C@H](C)NC(=O)[C@@H](C)O[C@H]1[C@H](O)[C@@H](CO)OC(OCc2ccccc2)[C@@H]1NC(C)=O)C(N)=O)C(N)=O)OC(=O)CCCCCCCCCCCCCCCCC (stereo partly drawn) was 5.49

---

assay.comment: Solubility test in PBS buffer
Format: physicochemical
condition.label: PBS pH 7.4, 0.2 mg/mL, room temperature

| compound | Appearance at RT |
| --- | --- |
| CC(=O)N[C@H]1[C@@H](OCc2ccccc2)O[C@H](CO)[C@@H](O)[C@@H]1O[C@H](C)C(=O)N[C@@H](C)C(=O)N[C@H](CCC(=O)NCc1cn(CC(=O)O[C@H]2CC[C@@]3(C)C(=CC[C@H]4[C@@H]5CC[C@H]([C@H](C)CCCC(C)C)[C@@]5(C)CC[C@@H]43)C2)nn1)C(N)=O [Example 8, MDP(Bn)-Chol[Click]] | suspension |
| CCCCCCCCCCCCCCCCCC(=O)OC[C@H](COP(=O)(O)OCCNC(=O)Cn1cc(CNC(=O)CC[C@@H](NC(=O)[C@H](C)NC(=O)[C@@H](C)O[C@H]2[C@H](O)[C@@H](CO)OC(OCc3ccccc3)[C@@H]2NC(C)=O)C(N)=O)nn1)OC(=O)CCCCCCCCCCCCCCCCC (some centres unmarked) [Example 7, MDP(Bn)-DSPE [Click]] | suspension |

---

assay.comment: HPLC retention times to compare lipophilicities
Format: physicochemical
condition.label: Kinetex EVO C18 column, same gradient A to B; higher retention time = more lipophilic
Exercise: for every item that follows, state its recorded HPLC-MS t.
Field: numeric (min). Do not append units.

Entry under test: CCCCCCCCCCCCCCCCCC(=O)OC[C@H]1OC(O)[C@H](NC(C)=O)[C@@H](O[C@H](C)C(=O)N[C@@H](C)C(=O)N[C@H](CCC(=O)O)C(N)=O)[C@@H]1O (some centres unmarked) [MDP-C18[mur], reference compound] . Its HPLC-MS t was 0.95

Note to self: HPLC-MS t recorded for CCCCCCCCCCCCCCCCCC(=O)OC[C@H](COP(=O)(O)OCCNC(=O)Cn1cc(CNC(=O)CC[C@@H](NC(=O)[C@H](C)NC(=O)[C@@H](C)O[C@H]2[C@H](O)[C@@H](CO)OC(O)[C@@H]2NC(C)=O)C(N)=O)nn1)OC(=O)CCCCCCCCCCCCCCCCC (some centres unmarked) [Example 2, MDP-DSPE [Click]] was 4.46

Documented HPLC-MS t of CCCCCCCCCCCCCCCC(=O)OC[C@H](COP(=O)(O)OCCNC(=O)[C@H](C)NC(=O)CC[C@@H](NC(=O)[C@H](C)NC(=O)[C@@H](C)O[C@H]1[C@H](O)[C@@H](CO)OC(O)[C@@H]1NC(C)=O)C(N)=O)OC(=O)CCCCCCCCCCCCCCC (some centres unmarked) [Mifamurtide, reference compound] : 2.85

Query CCCCCCCCCCCCCCCCCC(=O)OC[C@H](COP(=O)(O)OCCNC(=O)Cn1cc(CNC(=O)CC[C@@H](NC(=O)[C@H](C)NC(=O)[C@@H](C)O[C@H]2[C@H](O)[C@@H](CO)OC(OCc3ccccc3)[C@@H]2NC(C)=O)C(N)=O)nn1)OC(=O)CCCCCCCCCCCCCCCCC (some centres unmarked) [Example 7, MDP(Bn)-DSPE [Click]] yields HPLC-MS t of 5.16

The value of HPLC-MS t measured for the molecule CCCCCCCCCCCCCCCC(=O)OC[C@H](COP(=O)(O)OCCNC(=O)[C@H](C)NC(=O)CC[C@@H](NC(=O)[C@H](C)NC(=O)[C@@H](C)O[C@H]1[C@H](O)[C@@H](CO)OC(OCc2ccccc2)[C@@H]1NC(C)=O)C(N)=O)OC(=O)CCCCCCCCCCCCCCC (some centres unmarked) turned out to be 3.61
